Source listed as patent US20240101959A1.

Target: T1, hu-IL-2Rγc subunit (human), P31785
T1 chain: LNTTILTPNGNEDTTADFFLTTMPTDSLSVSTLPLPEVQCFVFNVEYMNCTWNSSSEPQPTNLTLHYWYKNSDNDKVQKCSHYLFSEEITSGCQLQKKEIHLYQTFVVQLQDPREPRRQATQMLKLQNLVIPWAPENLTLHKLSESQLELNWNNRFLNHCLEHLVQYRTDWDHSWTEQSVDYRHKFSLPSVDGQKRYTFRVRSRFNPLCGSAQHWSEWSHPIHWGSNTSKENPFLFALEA
quantity kind: IC50

Here are 6 binders together with their reported answers.
SAGRQEVVCQDWNGVELCWI (modifications not checked) [SEQ ID NO 654]: < 100 µM
DFERSYVVCQDWDGVELCWI (modifications not checked) [SEQ ID NO 648]: < 100 µM
TDEVSCQEWEGVELCWIERQ (modifications not checked) [SEQ ID NO 694]: < 100 µM
TAEVVCQEWDGVELCWIEVL (modifications not checked) [SEQ ID NO 703]: < 100 µM
KSQVECQDWEGVELCWVVSE (modifications not checked) [SEQ ID NO 676]: < 100 µM
VECEEWGGVELCWLADEVMW (modifications not checked) [SEQ ID NO 706]: < 100 µM

Tell me the measured IC50 of VSCQEWDGVELCWVDGDLAA (modifications not checked) [SEQ ID NO 679] , please.
< 100 µM
